Sourced from PubChem BioAssay AID1851

Molecular target: Cytochrome P450 2D6 (Homo sapiens) (UniProt P10635)
Sequence (P10635 whole entry, looked up): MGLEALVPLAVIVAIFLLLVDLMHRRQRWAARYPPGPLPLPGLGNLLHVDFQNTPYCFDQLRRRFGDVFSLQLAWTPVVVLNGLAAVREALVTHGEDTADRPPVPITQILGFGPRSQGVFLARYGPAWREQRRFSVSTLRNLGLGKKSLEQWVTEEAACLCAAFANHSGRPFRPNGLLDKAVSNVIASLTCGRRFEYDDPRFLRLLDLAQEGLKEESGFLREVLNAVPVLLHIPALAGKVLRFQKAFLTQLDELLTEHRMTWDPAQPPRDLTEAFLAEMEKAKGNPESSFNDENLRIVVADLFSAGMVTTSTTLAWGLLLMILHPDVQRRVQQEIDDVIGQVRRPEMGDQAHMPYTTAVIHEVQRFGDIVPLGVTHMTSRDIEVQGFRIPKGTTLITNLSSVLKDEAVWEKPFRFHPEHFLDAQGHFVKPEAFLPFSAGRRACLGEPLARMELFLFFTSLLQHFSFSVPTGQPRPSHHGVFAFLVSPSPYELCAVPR
Assay: Cytochrome panel assay with activity outcomes
Conditions: recombinant CYP, pro-luciferin dealkylation, luminescence, p450-cyp2d6; series mostly up to 57.1 µM
Hit rate of the full screen: of about 16,000 compounds, about 2,600 (16%) were called active. Another 20% or so got no clear call; they are omitted. Calls come from the whole dose curve; as a rule, active = well fitted curve in the direction sought with a large enough effect; inconclusive = small, poorly fitted or top-dose-only effect, or effect the other way; inactive = no such curve, though single readings can be large or run the other way. A selection follows.
Labels: active, inactive

[
  {
    "Molecule": "COc1ccc(/C=N/NC(=O)c2cc(-c3ccc(C)cc3C)nc3ccccc23)cc1COC(C)=O",
    "Group label": "inactive"
  },
  {
    "Molecule": "CCOC(=O)c1c(C)[nH]c(C)c1C(=O)COC(=O)c1cccc(S(=O)(=O)N(CC)CC)c1",
    "Group label": "active"
  },
  {
    "Molecule": "O=C(Nc1nnc(CCS(=O)(=O)c2ccc(Br)cc2)s1)c1ccc([N+](=O)[O-])cc1",
    "Group label": "inactive"
  },
  {
    "Molecule": "COc1ccc(-c2nnc3n2N=C(C)CS3)cc1",
    "Group label": "inactive"
  },
  {
    "Molecule": "CN(C(=O)Cn1nnc(-c2cccc(C(F)(F)F)c2)n1)C1CCCCC1",
    "Group label": "inactive"
  },
  {
    "Molecule": "CCOC(=O)c1c(C)[nH]c(C)c1C(=O)COC(=O)c1ccc(S(=O)(=O)N(CC)CC)cc1",
    "Group label": "active"
  },
  {
    "Molecule": "CCOc1ccc(C(F)(F)F)cc1NC(=O)c1ccc(OC)c([N+](=O)[O-])c1",
    "Group label": "inactive"
  },
  {
    "Molecule": "Cc1cccc(CNc2nc(-c3cccc(NS(C)(=O)=O)c3)nc3ccccc23)c1",
    "Group label": "active"
  },
  {
    "Molecule": "CCOC(=O)c1ccc(S(=O)(=O)N2CCN(C)CC2)cc1",
    "Group label": "inactive"
  },
  {
    "Molecule": "CC(C)CC(C(=O)NCC1CCCO1)N(C(=O)Cn1nnc(-c2ccc(F)cc2)n1)c1cccc(C(F)(F)F)c1 (stereo not given)",
    "Group label": "active"
  },
  {
    "Molecule": "CCOC(=O)CN(c1ccccn1)S(=O)(=O)c1ccccc1",
    "Group label": "inactive"
  },
  {
    "Molecule": "CC(C)CC(C(=O)NCC1CCCO1)N(C(=O)Cn1nnc(-c2ccc(F)cc2)n1)c1ccccc1F (stereo not given)",
    "Group label": "active"
  },
  {
    "Molecule": "CCOC(=O)c1c(C)[nH]c2ccc3c(c12)CN1CCc2cc(OC)ccc2[C@@H]1O3",
    "Group label": "inactive"
  },
  {
    "Molecule": "COc1ccccc1C1/C(=C(/O)c2ccccc2)C(=O)C(=O)N1CCO (stereo not given)",
    "Group label": "inactive"
  },
  {
    "Molecule": "COc1ccc(S(=O)(=O)N(CC(=O)NCC2CCCO2)c2ccc(F)cc2)cc1OC (stereo not given)",
    "Group label": "inactive"
  }
]
